Reported EC50, CRE-luciferase reporter in HEK293 cells values for the following substances.
target_system: relaxin receptor (LGR7)
Sequence (looked up): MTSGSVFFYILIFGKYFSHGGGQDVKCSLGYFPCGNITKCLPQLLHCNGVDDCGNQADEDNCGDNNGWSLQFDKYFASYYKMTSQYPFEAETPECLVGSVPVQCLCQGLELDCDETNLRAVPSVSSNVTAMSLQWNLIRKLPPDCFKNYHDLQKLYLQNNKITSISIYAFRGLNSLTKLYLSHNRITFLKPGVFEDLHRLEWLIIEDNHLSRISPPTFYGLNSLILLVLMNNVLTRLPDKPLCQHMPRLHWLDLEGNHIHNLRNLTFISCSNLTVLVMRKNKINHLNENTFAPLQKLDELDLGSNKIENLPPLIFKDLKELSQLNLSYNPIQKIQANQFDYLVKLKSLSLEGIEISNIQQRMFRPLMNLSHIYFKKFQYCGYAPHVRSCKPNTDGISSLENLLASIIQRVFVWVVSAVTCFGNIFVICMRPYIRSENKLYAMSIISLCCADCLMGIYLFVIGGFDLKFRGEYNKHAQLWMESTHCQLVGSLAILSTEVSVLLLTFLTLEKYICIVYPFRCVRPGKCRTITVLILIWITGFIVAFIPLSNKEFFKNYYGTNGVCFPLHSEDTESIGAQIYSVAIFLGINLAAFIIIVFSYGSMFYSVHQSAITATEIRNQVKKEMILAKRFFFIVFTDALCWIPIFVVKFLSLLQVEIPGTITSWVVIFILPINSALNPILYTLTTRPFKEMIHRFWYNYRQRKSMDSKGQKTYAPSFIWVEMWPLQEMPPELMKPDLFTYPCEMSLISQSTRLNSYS
experiment: cell-based or functional assay
reported_endpoint: EC50, CRE-luciferase reporter in HEK293 cells (nM)

palivizumab(NH, EAAAK)-relaxin2(GGGPRR) and palivizumab light chain | 3.4
palivizumab(NH, CEXGGGGS)-relaxin2(single) and palivizumab light chain | 2.5
palivizumab(NH, CEXGGGGG)-relaxin2(30GS) and palivizumab light chain | 0.208
palivizumab(NH, CEXGGGGG)-relaxin2(GGGPRR) and palivizumab light chain | 2
palivizumab fab(NH, CEXGGGGS)-relaxin2(single) and palivizumab light chain | 47.3
palivizumab (NH, CEXGGGGG)-relaxin2(9GS) and palivizumab light chain | 0.48
